system: BT-474; experiment: normalised response (% of control), CellTiter-Glo; higher = more viable cells (100 = DMSO, 0 = benzethonium chloride kill control); settings: incubation time: 72 h
What normalised response was measured for each of the following?
Your answer is read as %, so omit the unit and give the number.

Data request: Find the recorded normalised response belonging to c1ccc2c(CCNc3ccc(Nc4ccncc4)cc3)c[nH]c2c1 [Serdemetan] (10000 nM) and report it.
Data returned: 51.8

Data request: Find the recorded normalised response belonging to Cc1[nH]c2ccccc2c1CCNCc1ccc(/C=C/C(=O)NO)cc1 [Panobinostat] (1000 nM) and report it.
Data returned: 7.51

Data request: If you can, please state the reported normalised response value of CN(C)CCOc1ccc(/C(=C(/CCCl)c2ccccc2)c2ccccc2)cc1 [Toremifene] (10000 nM) .
Data returned: 68.5

Data request: Would you mind telling me what normalised response value was observed for COC(=O)c1ccc2c(c1)NC(=O)/C2=C(\Nc1ccc(N(C)C(=O)CN2CCN(C)CC2)cc1)c1ccccc1 [Nintedanib] (10000 nM) ?
Data returned: 3.88
